pKd: −log10 of the molar value.
Each entry below carries its measured pKd, system: PSMA (Homo sapiens).
Sequence (Q04609 whole entry): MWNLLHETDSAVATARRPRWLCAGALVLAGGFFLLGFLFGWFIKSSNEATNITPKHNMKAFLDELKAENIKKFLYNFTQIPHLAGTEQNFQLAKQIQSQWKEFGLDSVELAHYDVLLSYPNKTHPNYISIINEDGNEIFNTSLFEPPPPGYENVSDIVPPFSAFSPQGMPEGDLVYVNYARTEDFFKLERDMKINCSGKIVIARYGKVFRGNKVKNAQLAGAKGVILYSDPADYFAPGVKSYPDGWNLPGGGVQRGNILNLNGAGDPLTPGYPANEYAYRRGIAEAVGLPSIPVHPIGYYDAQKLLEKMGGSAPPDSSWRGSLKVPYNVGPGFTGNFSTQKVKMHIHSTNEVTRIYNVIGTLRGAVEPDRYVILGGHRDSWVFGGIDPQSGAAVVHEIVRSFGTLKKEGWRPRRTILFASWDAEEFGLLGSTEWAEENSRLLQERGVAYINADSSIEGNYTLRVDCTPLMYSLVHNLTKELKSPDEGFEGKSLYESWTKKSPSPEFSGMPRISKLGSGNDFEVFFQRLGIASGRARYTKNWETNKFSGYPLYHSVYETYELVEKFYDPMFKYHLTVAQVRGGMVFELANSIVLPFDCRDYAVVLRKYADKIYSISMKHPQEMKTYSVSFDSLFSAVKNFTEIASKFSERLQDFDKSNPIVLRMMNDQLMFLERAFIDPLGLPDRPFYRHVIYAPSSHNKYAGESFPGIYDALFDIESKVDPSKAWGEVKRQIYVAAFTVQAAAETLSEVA
readout.kind: pKd

- O=C([O-])CN1CCN(CC(=O)[O-])CCN(CC(=O)NCC2CCC(C(=O)N[C@@H](Cc3ccc4ccccc4c3)C(=O)NCCCC[C@H](NC(=O)N[C@@H](CCC(=O)O)C(=O)O)C(=O)O)CC2)CCN(CC(=O)[O-])CC1.[177Lu+3] (stereo partly shown) [^177Lu-PSMA-617]: 7.41
- O=C([O-])CN1CCN(CC(=O)[O-])CCN(CC(=O)NCC2CCC(C(=O)NC(Cc3ccc4ccccc4c3)C(=O)NCCCCC(NC(=O)NC(CCC(=O)O)C(=O)O)C(=O)O)CC2)CCN(CC(=O)[O-])CC1.[44Sc+3] (stereo not shown) [^44Sc-PSMA-617]: 7.48
- O=C([O-])CN(CCN(CC(=O)[O-])Cc1cc(CCC(=O)NCCCCCC(=O)NCCCC[C@H](NC(=O)N[C@@H](CCC(=O)O)C(=O)O)C(=O)O)ccc1[O-])Cc1cc(CCC(=O)O)ccc1[O-].[68Ga+3] [^68Ga-PSMA-11]: 7.06
- O=C([O-])CN1CCN(CC(=O)[O-])CCN(CC(=O)NCC2CCC(C(=O)NC(Cc3ccc4ccccc4c3)C(=O)NCCCCC(NC(=O)NC(CCC(=O)O)C(=O)O)C(=O)O)CC2)CCN(CC(=O)[O-])CC1.[68Ga+3] (stereo not shown) [^68Ga-PSMA-617]: 7.14
